Data credit: PubChem BioAssay AID1159580

Assay: chemical genetic growth profiling, strain panel (AID 1159580);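 further: tested at 20 µM; growth read once vehicle control cultures reached saturation at 30 °C; 1 = growth at the plate median or of vehicle wells; lower values mean less growth of the strain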
Settings: S. cerevisiae deletion strains, growth OD, locus YHR087W, strain rtc3
In all, about 5,500 compounds went through this assay and about 2,000 (36%) were called active. Roughly 18% stayed inconclusive and do not appear here. No stated cut-off is given here; in the data, active means normalized growth mostly below about 0.91 (no sharp cut-off); inconclusive means no clear call, values can overlap the other calls; inactive means mostly above about 0.92. The list shows a part of the results.
// one of active, inactive, no free text

What outcome does the record of this test show for O=C1CC(CSc2ccc(Cl)cc2)=NN1 ? active

What did this assay record as the result for Cc1c(S(=O)(=O)c2ccc(Cl)cc2)cnc2cc(C(C)(C)C)nn12 ? inactive

Test call, this molecule: CC(C)(C)OC(=O)C(C)(C)S(=O)(=O)c1ccc(Cl)cc1 inactive

Would you mind telling me which call this test gave COc1ccc(C(=O)CN2CCN(c3cc(C)nc4ccccc34)CC2)cc1 ? inactive

Identify the outcome logged in this assay for the molecule shown: Cc1noc(N)c1C(N)=S inactive

How did this test come out for c1cc2c(cc1N=C1SCC3CCCCN13)OCO2 (stereo unspecified) ? inactive

---

Would you kindly list normalized growth for each of these molecules?
Assay: chemical genetic growth profiling, strain panel (AID 1159580);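 further: tested at 20 µM; growth read once vehicle control cultures reached saturation at 30 °C; 1 = growth at the plate median or of vehicle wells; lower values mean less growth of the strain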
Conditions: S. cerevisiae deletion strains, growth OD, locus YOR136W, strain idh2, active compounds read low
Screen size: about 5,500 compounds; about 2,000 (36%) were called active. Inconclusive results (about 18%) are left out. The list shows a part of the results.
Note: the reply should be a number with no unit written.

Respond only with normalized growth recorded for N=C(N)c1ccc(OCCCCCOc2ccc(C(=N)N)cc2)cc1 0.95

Give the reported normalized growth for this molecule. CCCOc1ccccc1-c1nc2n[nH]nc2c(=O)[nH]1 1.01

Give the reported value of normalized growth for this record: N[C@H](C(=O)O)[C@@H]1CC(Cl)=NO1 0.272

Find the measured normalized growth of C[C@@H]1OC(O[C@H]2[C@H](O)[C@@H](O)[C@H](OC[C@H]3O[C@@H](OC(=O)[C@]45CCC(C)(C)CC4C4=CCC6[C@@]7(C)CC[C@H](OC8OC[C@H](O)[C@H](O)[C@H]8OC8O[C@@H](C)[C@H](O)[C@@H](O)[C@H]8O)[C@@](C)(CO)C7CC[C@@]6(C)[C@]4(C)CC5)[C@H](O)[C@@H](O)[C@@H]3O)O[C@@H]2CO)[C@H](O)[C@H](O)[C@H]1O (some centres undefined) and report it. 0.979

---

So I've got a bunch of compounds here, and I need their normalized growth values.
Test: chemical genetic growth profiling, strain panel (AID 1159580);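 further: tested at 20 µM; growth read once vehicle control cultures reached saturation at 30 °C; 1 = growth at the plate median or of vehicle wells; lower values mean less growth of the strain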
Settings: S. cerevisiae deletion strains, growth OD, locus YFR028C, strain CDC14, active compounds read low
Among all 5,500 compounds or so, about 2,000 (36%) were called active. Not shown: some 18% with an inconclusive outcome. The list shows a part of the results.
Answer with a number only.

Specify reported normalized growth for the compound shown: Brc1ccc2[nH]c3c(c2c1)CCC3 0.969

Read off the recorded normalized growth for O=C(NCCNc1ncc(C(F)(F)F)cc1Cl)C(F)(F)Sc1ccccc1 0.989

Return reported normalized growth. Input compound: O=[N+]([O-])c1cnc(Sc2nnc(SCc3cccc(C(F)(F)F)c3)s2)s1 0.0995

Tell us which normalized growth value is on record for Cc1csc(NC(=O)Nc2ccc(C(F)(F)F)cc2)c1Cl 0.945

Specify measured normalized growth for O=C(N/N=C\c1cc(Br)ccc1O)c1ccccc1Oc1ccccc1 . 0.965

Respond only with normalized growth recorded for O=C(NCCc1ccncc1)c1ccc(Cl)c(Cl)c1 0.994

Fill in reported normalized growth for this entry: Cc1ccc(C)c(CSc2nc(C3CCCCC3)c(C#N)c(=O)[nH]2)c1 0.975

Look up normalized growth of Cc1nc(-c2ccccn2)[nH]c(=O)c1Cc1c(Cl)cccc1Cl and report it. 0.972

Given the compound O=C(Nc1ccccc1Sc1ccc([N+](=O)[O-])cc1[N+](=O)[O-])C(Cl)(Cl)Cl , write its reported normalized growth. 0.966
